experimental_system: CDK9 (Homo sapiens, UniProt P50750)
Sequence (P50750 whole entry, species assumed): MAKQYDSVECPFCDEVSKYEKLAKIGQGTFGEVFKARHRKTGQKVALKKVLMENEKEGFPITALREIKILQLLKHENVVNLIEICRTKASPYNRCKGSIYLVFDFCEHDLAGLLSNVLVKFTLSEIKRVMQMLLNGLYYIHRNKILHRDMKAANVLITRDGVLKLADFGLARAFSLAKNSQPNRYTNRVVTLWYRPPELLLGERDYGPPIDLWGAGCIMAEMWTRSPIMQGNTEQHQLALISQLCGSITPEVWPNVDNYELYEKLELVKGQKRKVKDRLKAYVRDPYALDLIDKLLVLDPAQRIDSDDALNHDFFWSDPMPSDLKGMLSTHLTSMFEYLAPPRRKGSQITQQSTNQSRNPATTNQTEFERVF
Sequence (O60563 whole entry partner, species assumed): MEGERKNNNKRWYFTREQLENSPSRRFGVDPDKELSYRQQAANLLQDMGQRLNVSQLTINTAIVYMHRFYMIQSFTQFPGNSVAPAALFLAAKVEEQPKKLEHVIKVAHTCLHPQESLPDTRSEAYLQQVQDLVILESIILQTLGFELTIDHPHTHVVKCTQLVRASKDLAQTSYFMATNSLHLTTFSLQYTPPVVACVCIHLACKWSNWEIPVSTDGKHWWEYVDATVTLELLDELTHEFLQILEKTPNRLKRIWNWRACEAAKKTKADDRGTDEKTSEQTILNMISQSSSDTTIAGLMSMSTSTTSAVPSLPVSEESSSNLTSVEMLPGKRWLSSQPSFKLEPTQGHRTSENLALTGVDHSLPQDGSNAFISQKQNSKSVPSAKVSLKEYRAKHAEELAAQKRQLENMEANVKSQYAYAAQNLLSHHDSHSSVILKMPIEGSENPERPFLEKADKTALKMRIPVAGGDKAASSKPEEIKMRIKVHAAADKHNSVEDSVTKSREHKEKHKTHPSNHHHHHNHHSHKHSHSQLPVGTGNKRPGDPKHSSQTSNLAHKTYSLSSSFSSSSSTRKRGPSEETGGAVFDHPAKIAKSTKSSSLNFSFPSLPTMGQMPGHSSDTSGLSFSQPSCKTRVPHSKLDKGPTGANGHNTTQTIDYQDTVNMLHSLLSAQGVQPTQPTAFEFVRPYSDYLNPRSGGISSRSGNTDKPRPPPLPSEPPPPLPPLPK
protocol_description: Kinase functional assay (mobility shift), CDK9
Assay type: biochemical
reported_conditions: dose response; read-out: CDK9 IC50
recorded_metric: pIC50
By convention, pIC50 is the negative base-10 log of a molar concentration.

Below, 3 molecules whose answers are already recorded.
| molecule | result |
| --- | --- |
| CN(CCO)c1ccc(-c2nc3cc(Cl)ccc3c(=O)[nH]2)cc1 [Compound 41] | 5.21 |
| CN(CCO)c1ccc(-c2nc3cc(Cl)ccc3c(=O)[nH]2)cc1 [C00004] | 5.21 |
| Nc1ccc(-c2nc3cc(Cl)ccc3c(=O)[nH]2)cc1 [C00006] | 5.47 |

Next molecule, pIC50 to be filled in.
Prompt line: // returns reported pIC50 for input Nc1ccc(-c2nc3cc(Cl)ccc3c(=O)[nH]2)cc1 [Compound 42]
Response line: 5.47

* * *

Here the recorded IC50 is given for each entry.
experimental_system: ARTD8/PARP14 (Homo sapiens, UniProt Q460N5)
Sequence (Q460N5 whole entry): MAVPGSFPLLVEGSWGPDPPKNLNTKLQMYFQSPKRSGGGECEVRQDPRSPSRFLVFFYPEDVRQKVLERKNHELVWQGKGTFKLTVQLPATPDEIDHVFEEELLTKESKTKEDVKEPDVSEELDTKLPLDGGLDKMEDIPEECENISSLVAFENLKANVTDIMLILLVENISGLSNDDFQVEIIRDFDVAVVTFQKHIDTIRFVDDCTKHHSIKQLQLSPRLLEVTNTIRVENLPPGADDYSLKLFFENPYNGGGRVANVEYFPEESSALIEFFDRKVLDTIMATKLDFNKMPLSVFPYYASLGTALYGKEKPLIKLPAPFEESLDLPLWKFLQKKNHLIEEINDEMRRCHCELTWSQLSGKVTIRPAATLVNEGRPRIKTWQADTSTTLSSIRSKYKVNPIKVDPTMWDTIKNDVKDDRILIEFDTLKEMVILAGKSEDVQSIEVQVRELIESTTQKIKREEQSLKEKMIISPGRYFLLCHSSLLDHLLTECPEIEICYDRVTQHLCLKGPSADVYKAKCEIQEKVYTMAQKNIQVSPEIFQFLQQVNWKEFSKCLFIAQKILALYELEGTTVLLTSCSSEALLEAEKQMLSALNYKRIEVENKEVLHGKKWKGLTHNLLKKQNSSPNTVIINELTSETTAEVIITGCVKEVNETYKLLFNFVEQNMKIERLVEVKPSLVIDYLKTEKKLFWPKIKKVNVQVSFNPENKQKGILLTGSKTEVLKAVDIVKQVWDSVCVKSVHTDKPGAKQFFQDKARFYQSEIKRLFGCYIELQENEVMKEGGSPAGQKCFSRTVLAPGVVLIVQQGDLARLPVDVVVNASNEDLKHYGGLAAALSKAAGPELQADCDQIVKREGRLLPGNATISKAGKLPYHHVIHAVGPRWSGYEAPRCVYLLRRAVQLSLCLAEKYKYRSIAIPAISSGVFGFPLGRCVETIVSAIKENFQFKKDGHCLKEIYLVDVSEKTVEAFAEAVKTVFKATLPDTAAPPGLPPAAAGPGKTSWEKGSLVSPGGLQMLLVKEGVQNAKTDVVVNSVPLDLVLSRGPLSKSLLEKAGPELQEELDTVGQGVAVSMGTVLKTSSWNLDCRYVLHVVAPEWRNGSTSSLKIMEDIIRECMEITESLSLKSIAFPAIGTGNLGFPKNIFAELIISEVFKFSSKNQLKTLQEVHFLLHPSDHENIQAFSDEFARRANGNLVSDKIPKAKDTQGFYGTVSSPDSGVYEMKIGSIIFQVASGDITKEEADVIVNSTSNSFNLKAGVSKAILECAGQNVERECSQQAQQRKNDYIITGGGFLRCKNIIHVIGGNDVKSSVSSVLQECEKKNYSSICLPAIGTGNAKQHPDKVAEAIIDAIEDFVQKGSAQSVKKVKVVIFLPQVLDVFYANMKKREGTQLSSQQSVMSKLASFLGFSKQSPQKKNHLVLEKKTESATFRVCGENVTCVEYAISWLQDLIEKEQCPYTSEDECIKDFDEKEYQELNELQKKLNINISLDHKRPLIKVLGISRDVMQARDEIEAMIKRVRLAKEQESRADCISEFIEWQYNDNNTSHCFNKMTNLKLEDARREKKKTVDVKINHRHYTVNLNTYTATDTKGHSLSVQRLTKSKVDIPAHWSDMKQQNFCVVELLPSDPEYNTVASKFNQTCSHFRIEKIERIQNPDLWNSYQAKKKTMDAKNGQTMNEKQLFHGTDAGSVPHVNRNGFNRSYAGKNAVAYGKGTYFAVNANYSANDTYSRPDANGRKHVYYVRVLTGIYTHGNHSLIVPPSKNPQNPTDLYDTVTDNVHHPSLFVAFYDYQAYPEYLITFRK
protocol_description: ARTD profiling, ARTD8

| compound_smiles | result |
| --- | --- |
| CN(CCO)c1ccc(-c2nc3ccccc3c(=O)[nH]2)cc1 | 3.2 µM |
| O=c1[nH]c(-c2ccc(N3CCCCC3)cc2)nc2ccccc12 | > 10 µM |

Please find the next compound below.
Prompt line: For "CCN(CC)c1ccc(-c2nc3ccccc3c(=O)[nH]2)cc1" , what is its reported IC50?
Response line: > 10 µM

* * *

As shown below, each of these molecules has a reported CK2 inhibition-% value.
experimental_system: human CK2α-1 (Homo sapiens)
Construct: purchased Promega V4,482
protocol_description: ADP-Glo kinase assay, CK2
Type: biochemical
reported_conditions: 10 µM compound, Table 1
Procedure: The kinase functional assays were performed using a combination of kinase and 1.5 μM peptide substrate in the presence of ATP. The reaction mixture was analyzed on the Caliper LabChip 3,000 (Caliper, Hopkinton, MA) by the electrophoretic mobility shift of the fluorescent substrate and phosphorylated product. For the inhibition of human CK2α-1, the experiments were carried out with ADP-Glo kinase Assay Kit (Promega V9,101). Assays are described in detail in the Supplementary Methods and Table S6. […]
Value and unit, in that order.

| compound_smiles | result |
| --- | --- |
| O=c1[nH]c(-c2ccc(N3CCCCC3)cc2)nc2ccccc12 | 1% |

Prompt line: Entry "CCN(CC)c1ccc(-c2nc3ccccc3c(=O)[nH]2)cc1" : reported CK2 inhibition-% = ?
Response line: 2%

Prompt line: May I ask what CK2 inhibition-% has been recorded for "O=c1[nH]c(-c2ccc3[nH]ncc3c2)nc2ccccc12" ?
Response line: 12%

Prompt line: Reported CK2 inhibition-%, molecule "Nc1ccc(-c2nc3cc(Cl)ccc3c(=O)[nH]2)cc1" : ____
Response line: 2%

* * *

experimental_system: UniProt:P28482
protocol_description: Kinase functional assay (mobility shift), ERK2 (p42)
Type: biochemical
reported_conditions: 10 µM compound, Table 1
recorded_metric: p42 inhibition-%
Answer with the value and then the unit.

| compound | recorded_metric | result |
| --- | --- | --- |
| Nc1ccc(-c2nc3cc(Cl)ccc3c(=O)[nH]2)cc1 [C00006] | p42 inhibition-% | 51% |
| CCN(CC)c1ccc(-c2nc3ccccc3c(=O)[nH]2)cc1 [C00003] | p42 inhibition-% | 18% |
| O=c1[nH]c(-c2ccc(N3CCCCC3)cc2)nc2ccccc12 [C00002] | p42 inhibition-% | 3% |

Alright, here's another compound for you.
Prompt line: Enter reported p42 inhibition-% observed with UniProt:P28482 for O=c1[nH]c(-c2ccc3[nH]ncc3c2)nc2ccccc12 [C00001]
Response line: 14%

* * *

experimental_system: human CK2α-1 (Homo sapiens, UniProt P68400)
Construct: purchased Promega V4,482
Sequence (P68400 whole entry): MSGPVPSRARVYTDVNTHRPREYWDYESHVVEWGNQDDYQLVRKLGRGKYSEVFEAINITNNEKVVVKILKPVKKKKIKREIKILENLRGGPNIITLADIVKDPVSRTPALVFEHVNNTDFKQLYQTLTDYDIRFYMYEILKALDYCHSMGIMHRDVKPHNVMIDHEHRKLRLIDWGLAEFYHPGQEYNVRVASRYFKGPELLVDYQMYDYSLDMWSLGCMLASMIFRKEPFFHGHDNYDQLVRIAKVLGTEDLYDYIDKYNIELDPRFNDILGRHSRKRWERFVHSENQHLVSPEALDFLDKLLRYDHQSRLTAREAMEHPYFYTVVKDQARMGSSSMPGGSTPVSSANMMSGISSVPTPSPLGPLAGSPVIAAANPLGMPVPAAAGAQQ
protocol_description: ADP-Glo kinase assay, CK2
Type: biochemical
reported_conditions: 10 µM compound, Table S4; read-out: CK2 (% Inhib.)
inhibition at 10 µM listing for selected compounds.
Express the result in % but write the number alone.

# count of solved cases: 4
| compound | recorded_metric | result |
| --- | --- | --- |
| O=c1[nH]c(-c2ccc(N3CCCCC3)cc2)nc2ccccc12 | inhibition at 10 µM | 1 |
| O=c1[nH]c(-c2ccc3[nH]ncc3c2)nc2ccccc12 | inhibition at 10 µM | 12 |
| CCN(CC)c1ccc(-c2nc3ccccc3c(=O)[nH]2)cc1 | inhibition at 10 µM | 2 |
| Oc1nc(-c2ccc(C(F)(F)F)cc2)nc2c1CSCC2 [Compound 1, XAV939, reference compound] | inhibition at 10 µM | 1 |

Please look at the following compound next.
Prompt line: Return reported inhibition at 10 µM; argument: "Nc1ccc(-c2nc3cc(Cl)ccc3c(=O)[nH]2)cc1"
Response line: 2

* * *

experimental_system: ERK2 (Homo sapiens, UniProt P28482)
Sequence (P28482 whole entry, species assumed): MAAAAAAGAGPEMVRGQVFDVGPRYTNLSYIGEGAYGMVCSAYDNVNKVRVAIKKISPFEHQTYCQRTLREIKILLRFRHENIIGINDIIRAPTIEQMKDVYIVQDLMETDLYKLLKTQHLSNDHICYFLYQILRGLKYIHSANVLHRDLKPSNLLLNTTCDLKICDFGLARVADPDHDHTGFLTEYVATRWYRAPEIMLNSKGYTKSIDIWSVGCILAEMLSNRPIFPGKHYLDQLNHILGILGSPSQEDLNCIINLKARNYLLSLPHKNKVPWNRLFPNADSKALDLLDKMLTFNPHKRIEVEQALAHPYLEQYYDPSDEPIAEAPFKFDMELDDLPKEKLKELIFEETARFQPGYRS
protocol_description: Kinase functional assay (mobility shift), ERK2 (p42)
Format: biochemical
reported_conditions: 10 µM compound, Table S4; read-out: ERK2 (% Inhib.)
Some compounds, each annotated with its measured inhibition at 10 µM.
// note: answer is a bare numeric in %

Look over these answered cases.
| compound | experimental_system | quantity_unit | result |
| --- | --- | --- | --- |
| Oc1nc(-c2ccc(C(F)(F)F)cc2)nc2c1CSCC2 [Compound 1, XAV939, reference compound] | ERK2 (Homo sapiens, UniProt P28482) | % | 2 |
| O=c1[nH]c(-c2ccc3[nH]ncc3c2)nc2ccccc12 | ERK2 (Homo sapiens, UniProt P28482) | % | 14 |
| O=c1[nH]c(-c2ccc(N3CCCCC3)cc2)nc2ccccc12 | ERK2 (Homo sapiens, UniProt P28482) | % | 3 |

Prompt line: Quick one: inhibition at 10 µM of "Nc1ccc(-c2nc3cc(Cl)ccc3c(=O)[nH]2)cc1" ?
Response line: 51

Prompt line: Record request: inhibition at 10 µM value, item "CCN(CC)c1ccc(-c2nc3ccccc3c(=O)[nH]2)cc1"
Response line: 18

* * *

experimental_system: ARTD2/PARP2 (Homo sapiens, UniProt Q9UGN5)
Sequence (Q9UGN5 whole entry): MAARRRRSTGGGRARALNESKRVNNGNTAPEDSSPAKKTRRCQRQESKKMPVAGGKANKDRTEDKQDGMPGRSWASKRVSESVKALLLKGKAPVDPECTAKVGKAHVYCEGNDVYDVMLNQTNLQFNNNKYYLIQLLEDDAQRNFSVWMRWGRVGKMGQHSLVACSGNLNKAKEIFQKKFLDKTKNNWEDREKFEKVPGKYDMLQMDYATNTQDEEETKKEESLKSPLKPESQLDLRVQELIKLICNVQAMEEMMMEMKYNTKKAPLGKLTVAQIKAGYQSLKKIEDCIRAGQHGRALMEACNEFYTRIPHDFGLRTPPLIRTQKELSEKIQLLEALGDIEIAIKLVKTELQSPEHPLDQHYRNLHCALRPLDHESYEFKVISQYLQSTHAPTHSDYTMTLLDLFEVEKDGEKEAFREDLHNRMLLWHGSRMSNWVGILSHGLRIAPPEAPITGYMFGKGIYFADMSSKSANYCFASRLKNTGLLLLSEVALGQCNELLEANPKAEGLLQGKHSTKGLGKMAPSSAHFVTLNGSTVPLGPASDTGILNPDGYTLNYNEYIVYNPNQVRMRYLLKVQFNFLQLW
protocol_description: ARTD profiling, ARTD2
recorded_metric: pIC50
Remember the convention: pIC50 equals -log10 of concentration in molar.

The examples below pair each entry with its known result.
| compound | result |
| --- | --- |
| CCN(CC)c1ccc(-c2nc3ccccc3c(=O)[nH]2)cc1 | 4.62 |
| CN(CCO)c1ccc(-c2nc3ccccc3c(=O)[nH]2)cc1 | 6.07 |
| CC1(c2ccc(-c3nc4ccccc4c(=O)[nH]3)cc2)NC(=O)NC1=O (centres unmarked) | 6.47 |

Prompt line: GET /values?readout=pIC50&item= CC1(c2ccc(-c3nc4ccccc4c(=O)[nH]3)cc2)CNC(=O)N1 (centres unmarked)
Response line: 6.06

Prompt line: Endpoint output: pIC50 of "O=c1[nH]c(-c2ccc(N3CCCCC3)cc2)nc2ccccc12" . Value?
Response line: 5.07

* * *

experimental_system: p38α (Homo sapiens, UniProt Q16539)
Sequence (Q16539 whole entry): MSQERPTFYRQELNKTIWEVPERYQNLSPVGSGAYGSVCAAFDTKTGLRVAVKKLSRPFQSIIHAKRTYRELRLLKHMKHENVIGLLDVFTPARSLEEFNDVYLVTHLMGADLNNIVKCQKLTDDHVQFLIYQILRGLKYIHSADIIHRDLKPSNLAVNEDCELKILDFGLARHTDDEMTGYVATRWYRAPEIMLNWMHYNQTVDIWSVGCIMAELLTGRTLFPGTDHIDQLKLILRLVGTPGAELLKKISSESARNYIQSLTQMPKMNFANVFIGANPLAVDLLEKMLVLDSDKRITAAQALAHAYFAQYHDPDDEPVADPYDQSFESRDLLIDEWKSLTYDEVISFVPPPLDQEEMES
protocol_description: Kinase functional assay (mobility shift), p38α
Type: biochemical
reported_conditions: 10 µM compound, Table 1
recorded_metric: p38 inhibition-% (%)
API: value field is a number in %; no unit string.

Known p38 inhibition-% results, listed for orientation:
| compound_smiles | quantity_unit | result |
| --- | --- | --- |
| CCN(CC)c1ccc(-c2nc3ccccc3c(=O)[nH]2)cc1 | % | 20 |
| O=c1[nH]c(-c2ccc3[nH]ncc3c2)nc2ccccc12 | % | 3 |

Prompt line: Report p38 inhibition-% for "O=c1[nH]c(-c2ccc(N3CCCCC3)cc2)nc2ccccc12" please.
Response line: 3

Prompt line: Recorded p38 inhibition-% for "Nc1ccc(-c2nc3cc(Cl)ccc3c(=O)[nH]2)cc1" , please?
Response line: 45

* * *

experimental_system: ARTD1/PARP1 (Homo sapiens)
protocol_description: ARTD profiling, ARTD1
Parameter: log10 IC50. Scope: all listed entries.
Hello, just confirming the data are log10 of IC50 with units of nM.

| compound | recorded_metric | result |
| --- | --- | --- |
| O=c1[nH]c(-c2ccc(N3CCCCC3)cc2)nc2ccccc12 | log10 IC50 | 4.26 |
| CC1(c2ccc(-c3nc4ccccc4c(=O)[nH]3)cc2)NC(=O)NC1=O (centres unmarked) | log10 IC50 | 2.57 |
| CC1(c2ccc(-c3nc4ccccc4c(=O)[nH]3)cc2)CNC(=O)N1 (centres unmarked) | log10 IC50 | 3.00 |
| CCN(CC)c1ccc(-c2nc3ccccc3c(=O)[nH]2)cc1 | log10 IC50 | 4.48 |

Shifting focus to the compound that follows.
Prompt line: Value lookup for log10 IC50; key = "CN(CCO)c1ccc(-c2nc3ccccc3c(=O)[nH]2)cc1"
Response line: 3.23
